- Organism: Rattus norvegicus
- Assay protocol: Inhibitory activity against Hippocampal Excitatory Neurotransmission using lateral perforant path (LPP)in rat hippocamapl slice Tested as racemic mixtures
- Format: functional
Observation type: pIC50
FYI, pIC50 means -log10 of a concentration in mol per litre.

Give the measured pIC50 of NC1(C(=O)O)CC1CP(=O)(O)O (stereo in doubt; 5) .
4.74
